Data origin, for the record: the nanobody polyreactivity screen of Harvey et al. (2022)

# assay-overview: yeast display, Sf9 membrane polyspecificity reagent, FACS + sequencing; frameworks hold sequencing errors

sequence-string: QVQLVESGGGLDQAGGSLRLSCAASGSIFSVYAMGWYRQARGKERELVAAITSGTSTYADSVKGRFTISRDNAKNSVYLQMNSLKPEDTAVYYCAAESGSPGYYYWGQGTQVTVSS
polyreactivity (PSR sort gate): low polyreactivity

sequence-string: QVQLVESGGGLVQAGGSLRLSCAASGGTFSTYAMGWYRQAPGKEREFVAAITRSGTSTYYADSVKGRFTISRDNAKNTVYLQMNSLKPEDTAVYYCATGEHFYRKLDYWGQGTQVTVSS
polyreactivity (PSR sort gate): low polyreactivity

sequence-string: QVQLVESGGGLVQAGGSLRLSCAASGSIGYYAMGWYRQAPGKERELVAAIDWSGGDTYYADSVKGRFTISRDNAKNTVYLQMNSLKPEDTAVYYCAKRLYLKTCAASSADDYWGQGTQVTVSS
polyreactivity (PSR sort gate): low polyreactivity

sequence-string: QVQLVESGGGLVQARGSLRLSSGASGSTFATDYAMGWYRQAPGKERELDAAIAYTSASTYYADSVKGRITISRDNAKNPVYLQMNTLKPEDTAVYYCAADYGGTREYYWGQGTQVTVSS
polyreactivity (PSR sort gate): low polyreactivity
